Biological target: control isotype anti-KLH IgM Ab (C48-6; BD Bioscience-Pharmingen)
Assay: phage ELISA, coated control IgM
Bridges are numbered along the chain shown (N, C = ends). Where no end group is shown, it is not given here.
Here the recorded OD (binding of phages to control IgM) is given for each entry.
Just the number please, in OD, no unit attached.

| BINDER | DATA_VALUE |
| --- | --- |
| ASISNLTLSRFMGGGS (peptide, not shown: large carriers) [phage clone M15] | 0.04 |
| ACNNWKMPLCGGGS (peptide, not shown: large carriers, disulfide 2-10; also: C-terminus fused to phage pIII) [phage clone Cb4] | 0.1 |
| NSRTNNSQWTFQGGGS (peptide, not shown: large carriers) [phage clone A34] | 0.11 |
| HSLTNTQMTQLSGGGS (peptide, not shown: large carriers) [phage clone M31] | 0.03 |

Find the recorded OD (binding of phages to control IgM) belonging to HRMTNNAMDVFMGGGS (peptide, not shown: large carriers) [phage clones M6, G10] and report it.
0.03

Find the recorded OD (binding of phages to control IgM) belonging to GWGNKTPSQDVHGGGS (peptide, not shown: large carriers) [phage clone A39] and report it.
0.05

Find the recorded OD (binding of phages to control IgM) belonging to NSWTNASLSTFHGGGS (peptide, not shown: large carriers) [phage clone A40] and report it.
0.04

Where do the numbers come from? From patent US20150056209A1.
